The reported numbers originate from PubChem BioAssay (NCI).

assay: NCI Yeast Anticancer Drug Screen. Data for the mec2-1 strain (AID 157); settings: S. cerevisiae mec2-1 strain, at 100.0 µM, active compounds read high
Compounds without any hit were thinned out: in the full panel of roughly 79,000, 15% have a hit.

>  <Compound>
CCCCCCCCCCCCCCCCCCNc1nc(=O)n(C2CC(OP(=O)(O)OCC3OC(n4cc(F)c(=O)[nH]c4=O)CC3O)C(CO)O2)cc1F (stereo not given)

>  <U>
%

>  <growth inhibition>
61

$$$$
>  <Compound>
C=C(C(=O)OC)N1C(=O)CC(C)C1=O (stereo not given)

>  <U>
%

>  <growth inhibition>
81

$$$$
>  <Compound>
CC1=NN(C(=O)CC(=O)NC(=O)/C=C\c2ccccc2)C(=O)C1N=Nc1ccc([N+](=O)[O-])cc1 (stereo not given)

>  <U>
%

>  <growth inhibition>
43

$$$$
>  <Compound>
Cc1c2cc[n+](CCO)cc2c(C)c2c1[nH]c1ccc(O)cc12

>  <U>
%

>  <growth inhibition>
52

$$$$
>  <Compound>
COC(=O)c1cnc(Cl)c([N+](=O)[O-])c1

>  <U>
%

>  <growth inhibition>
99

$$$$

====

assay: NCI Yeast Anticancer Drug Screen. Data for the bub3 strain (AID 167); details: S. cerevisiae bub3 mutant strain, at 5.0 µM (retest, dose inferred, filed as 0.5), active compounds read high
About 79,000 compounds went through this panel and 15% of them were active in at least one assay; those are over-represented in the sample as a whole.
Recorded measurements of growth inhibition, one per entry
Assay Metric: growth inhibition (%)

>  <Compound>
O=C1C(=O)N(c2ccccc2)[C@@]2(c3ccccc3)C(=Nc3ccccc3)OC(c3ccccc3)=C12

>  <Assay Metric>
growth inhibition

>  <Obs Value>
-5

$$$$
>  <Compound>
OC(c1ccccc1)(c1ccccc1)c1nccc2ccccc12

>  <Assay Metric>
growth inhibition

>  <Obs Value>
0

$$$$
>  <Compound>
O=C(CN(c1ccccc1)c1ccccc1)n1nnc2ccccc21

>  <Assay Metric>
growth inhibition

>  <Obs Value>
-42

$$$$
>  <Compound>
CC1(C)CC(=O)C(C=NC(=S)C(N)=S)=C(O)C1

>  <Assay Metric>
growth inhibition

>  <Obs Value>
18

$$$$
>  <Compound>
O=C1C(=O)c2cccc([N+](=O)[O-])c2-c2ccccc21

>  <Assay Metric>
growth inhibition

>  <Obs Value>
53

$$$$
>  <Compound>
OC1(c2ccccc2)C2CC=CC2C1(c1ccccc1)c1ccccc1 (stereo unspecified)

>  <Assay Metric>
growth inhibition

>  <Obs Value>
-3

$$$$

====

experiment: NCI Yeast Anticancer Drug Screen. Data for the CLN2oe strain (AID 163);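 further: 0% = growth of vehicle-only control cultures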; details: S. cerevisiae CLN2oe strain, at 33.0 µM
The panel holds about 79,000 compounds, 15% with a hit somewhere; the sample as a whole holds those more often. Activity calls are given as the source filed them. Cut-off read from the data, not from the text of the source: active = growth inhibition above about 70%; inactive = the rest.
Possible outcomes: Yes = active, No = inactive

>  <Compound>
O=C1C(CCSc2ccccc2)C(=O)N(c2ccccc2)C1c1ccccc1 (stereo not given)

>  <Label Value>
Yes

$$$$
>  <Compound>
Cn1c(-c2ccc(/C=N\N3CCN(/N=C/c4ccc(-c5c[n+]6ccsc6n5C)cc4)CC3)cc2)c[n+]2ccsc12

>  <Label Value>
No

$$$$
>  <Compound>
CC(C)C(=O)CC(Sc1ccc(N)cc1)c1ccccc1 (stereo not given)

>  <Label Value>
No

$$$$
>  <Compound>
CC(=O)NC(c1nc2cc(C)c(C)cc2[nH]1)c1nc2cc(C)c(C)cc2[nH]1

>  <Label Value>
No

$$$$
>  <Compound>
CC(C)S(=O)(=O)/C=C\S(=O)(=O)C(C)C

>  <Label Value>
No

$$$$
